Test system: p-CHK1 (Ser345)
Assay: AlphaLISA SureFire Ultra p-CHK1 (Ser345) cellular assay in HT29 cells
Type: cell-based
Conditions: Homo sapiens, HT-29, 16 h at 37° C.
pIC50: −log10 of the molar value.
Recorded metric: pIC50

Field: example entries. Status: answers known.
1. Cc1cc(-c2cc(Nc3cnc(C#N)cn3)n[nH]2)c(O[C@@H]2CC[C@@H](N)C2)cc1F [Example 3-27]; 7.00 to 7.30
2. COc1cccc(O[C@H]2C[C@H](N)C2)c1-c1cc(Nc2cnc(C#N)cn2)n[nH]1 [Example 1-5]; ≥ 7.30
3. CN[C@@H]1CC[C@@H](Oc2cc(F)c(C)cc2-c2cc(Nc3cnc(C#N)cn3)n[nH]2)C1 [Example 3-21]; 7.00 to 7.30
4. CC(C)c1ccc(O[C@@H]2CC[C@H](N)C2)c(-c2cc(Nc3cnc(C#N)cn3)n[nH]2)n1 [Example 3-46]; 7.00 to 7.30
5. Cc1nc(Nc2cc(-c3ccccc3O[C@@H]3CC[C@H](N)C3)[nH]n2)cnc1C#N [Example 1-40]; < 6.00
6. COc1cccc(O[C@@H]2CC[C@H](N)C2)c1-c1cc(Nc2cnc(C#N)cn2)n[nH]1 [Example 1-7]; ≥ 7.30

Incoming: Which pIC50 value belongs to COc1cc(F)cc(O[C@H]2C[C@H](N)C2)c1-c1cc(Nc2cnc(C#N)cn2)n[nH]1 [Example 1-14] ?
Outgoing: ≥ 7.30

Incoming: Which pIC50 value belongs to N#Cc1cnc(Nc2cc(-c3ccccc3O[C@H]3C[C@@H](N)C3)[nH]n2)cn1 [Example 1-10] ?
Outgoing: < 6.00

Incoming: Which pIC50 value belongs to N#Cc1cnc(Nc2cc(-c3c(F)cccc3O[C@@H]3CC[C@H](N)C3)[nH]n2)cn1 [Example 1-22] ?
Outgoing: 6.30 to 7.00

Incoming: Which pIC50 value belongs to COc1c(C)ccc(O[C@@H]2CC[C@H](N)C2)c1-c1cc(Nc2cnc(C#N)cn2)n[nH]1 [Example 4-1] ?
Outgoing: 6.00 to 6.30

Incoming: Which pIC50 value belongs to COc1cccc(O[C@H]2CC[C@@H](N)CC2)c1-c1cc(Nc2cnc(C#N)cn2)n[nH]1 [Example 1-11] ?
Outgoing: 6.30 to 7.00

* * *

Each entry below carries its reported IC50.
System: p-CHK1 (Ser345)
Test: AlphaLISA SureFire Ultra p-CHK1 (Ser345) cellular assay in HT29 cells
Format: cell-based
Settings: Homo sapiens, HT-29, 16 h at 37° C.

Field: example entries. Status: answers known.
1) Cc1ccc(O[C@H]2C[C@H](N)C2)c(-c2cc(Nc3cnc(C#N)cn3)n[nH]2)n1 [Example 1-62]; 100 to 500 nM
2) N#Cc1cnc(Nc2cc(-c3c(OCC4CC4)cccc3O[C@H]3C[C@H](N)C3)[nH]n2)cn1 [Example 1-32]; 500 to 1000 nM
3) N#Cc1cnc(Nc2cc(-c3c(F)cccc3O[C@@H]3CC[C@@H](N)C3)[nH]n2)cn1 [Example 1-44]; ≤ 50 nM

Incoming: Which IC50 value belongs to COc1cc(F)c(-c2cc(Nc3cnc(C#N)cn3)n[nH]2)c(O[C@@H]2CC[C@H](N)C2)c1 [Example 1-41] ?
Outgoing: 100 to 500 nM

Incoming: Which IC50 value belongs to CCOc1cccc(O[C@H]2CC[C@H](N)CC2)c1-c1cc(Nc2cnc(C#N)cn2)n[nH]1 [Example 1-17] ?
Outgoing: 500 to 1000 nM

Incoming: Which IC50 value belongs to CN[C@@H]1CC[C@@H](Oc2ccccc2-c2cc(Nc3cnc(C#N)cn3)n[nH]2)C1 [Example 1-42] ?
Outgoing: 50 to 100 nM

Incoming: Which IC50 value belongs to CN[C@@H]1CC[C@@H](Oc2ccc(C)c(F)c2-c2cc(Nc3cnc(C#N)cn3)n[nH]2)C1 [Example 3-20] ?
Outgoing: ≤ 50 nM
